# credit: the supplement of paper PMC10567573

B1: GLTSCR2 (parent)
chain: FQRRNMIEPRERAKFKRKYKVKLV

Variants of: B1
protocol-description: protein stability index of a GFP-peptide fusion (GPS, HEK-293T) (PSI 1-6); higher = more stable;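 further: lentivirally expressed fusions sorted by FACS into six bins by GFP to DsRed ratio, PSI derived from sequencing read proportions per bin multiplied by bin number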
assay-setup: c terminus: a fixed tail appended
Kind request: treat 2 as inclusive, so protein stability index at 2 or higher is Y, anything lower is N.

> print(dat)
   variant.string  category.label
1            K20R               Y
2            V24E               Y
3            A13D               N

Ask | Determine whether this variant has protein stability index no lower than 2: `N5L`
Reply | Y

Ask | Determine whether this variant has protein stability index no lower than 2: `F15M`
Reply | Y

Ask | Determine whether this variant has protein stability index no lower than 2: `R17K`
Reply | Y

Ask | Is it the case that `E11I` has protein stability index reaching or exceeding 2?
Reply | N

Ask | Check this variant for protein stability index at or above 2: `V24P`
Reply | Y

Ask | Given the entry `Y19G` , answer whether its protein stability index meets or surpasses 2.
Reply | Y
